What ELISA reading was measured for each of the following?
Biological target: T1, whole KDR-ECD (Cat. # 676490, Calbiochem) (human, UniProt P35968 20-764)
T1 construct: extracellular domain; Bought soluble protein; also called soluble KDR; VEGF Receptor 2 D1-7
T1 sequence (P35968 20-764): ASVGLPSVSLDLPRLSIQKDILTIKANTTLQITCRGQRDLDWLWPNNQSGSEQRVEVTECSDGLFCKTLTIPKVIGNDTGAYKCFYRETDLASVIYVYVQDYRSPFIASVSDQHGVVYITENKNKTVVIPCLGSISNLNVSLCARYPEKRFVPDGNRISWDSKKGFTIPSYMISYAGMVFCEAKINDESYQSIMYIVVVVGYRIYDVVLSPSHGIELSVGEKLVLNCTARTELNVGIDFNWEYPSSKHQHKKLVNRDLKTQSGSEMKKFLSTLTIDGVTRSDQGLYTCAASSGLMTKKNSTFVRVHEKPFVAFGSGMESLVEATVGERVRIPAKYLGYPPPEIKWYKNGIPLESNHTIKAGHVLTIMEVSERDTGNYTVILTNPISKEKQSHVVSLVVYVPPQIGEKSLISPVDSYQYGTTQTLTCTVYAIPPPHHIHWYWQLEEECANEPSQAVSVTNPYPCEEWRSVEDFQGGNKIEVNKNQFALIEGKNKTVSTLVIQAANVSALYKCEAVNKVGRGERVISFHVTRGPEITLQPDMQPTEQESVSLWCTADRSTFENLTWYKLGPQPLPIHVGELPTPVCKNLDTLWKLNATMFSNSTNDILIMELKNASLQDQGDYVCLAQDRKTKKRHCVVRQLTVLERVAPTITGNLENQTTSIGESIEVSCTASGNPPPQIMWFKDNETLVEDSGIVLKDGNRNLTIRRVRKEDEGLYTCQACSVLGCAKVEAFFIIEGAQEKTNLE
Test: ELISA, KDR-ECD coat 5 ug/mL, antibody 0.01 ug/mL

Give ELISA reading for 32F4 (antibody, V domains shown, Fully human monoclonal antibody from a XenoMouse hybridoma (IgG2 or IgG4 strain), purified) VH: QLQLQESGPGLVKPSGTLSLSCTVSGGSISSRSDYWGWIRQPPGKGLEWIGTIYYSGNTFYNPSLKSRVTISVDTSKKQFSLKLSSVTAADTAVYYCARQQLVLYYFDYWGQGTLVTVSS VL: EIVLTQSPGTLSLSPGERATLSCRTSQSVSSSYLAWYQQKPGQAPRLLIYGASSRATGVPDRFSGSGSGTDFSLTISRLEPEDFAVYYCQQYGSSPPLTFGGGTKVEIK
0.09

Give ELISA reading for 33C3 (antibody, V domains shown, Fully human monoclonal antibody from a XenoMouse hybridoma (IgG2 or IgG4 strain), purified) VH: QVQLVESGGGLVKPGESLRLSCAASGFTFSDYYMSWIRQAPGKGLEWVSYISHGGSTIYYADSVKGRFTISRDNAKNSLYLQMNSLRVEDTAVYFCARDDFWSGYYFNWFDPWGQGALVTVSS VL: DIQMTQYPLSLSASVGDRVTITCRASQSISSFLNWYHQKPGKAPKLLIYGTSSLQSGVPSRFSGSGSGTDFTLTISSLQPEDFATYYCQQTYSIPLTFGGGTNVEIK
0.09

Give ELISA reading for 22B8 (antibody, V domains shown, Fully human monoclonal antibody from a XenoMouse hybridoma (IgG2 or IgG4 strain), purified) VH: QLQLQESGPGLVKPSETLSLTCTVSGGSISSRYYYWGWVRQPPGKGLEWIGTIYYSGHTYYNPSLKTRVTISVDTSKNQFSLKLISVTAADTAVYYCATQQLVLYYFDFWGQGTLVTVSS VL: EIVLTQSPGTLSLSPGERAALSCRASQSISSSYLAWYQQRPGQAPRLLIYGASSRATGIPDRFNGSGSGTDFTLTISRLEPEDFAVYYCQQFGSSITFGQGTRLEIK
0.075

Give ELISA reading for 33E1 (antibody, V domains shown, Fully human monoclonal antibody from a XenoMouse hybridoma (IgG2 or IgG4 strain), purified) VH: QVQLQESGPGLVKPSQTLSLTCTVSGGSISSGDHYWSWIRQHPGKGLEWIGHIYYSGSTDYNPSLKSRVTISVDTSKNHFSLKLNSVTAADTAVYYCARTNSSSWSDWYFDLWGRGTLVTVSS VL: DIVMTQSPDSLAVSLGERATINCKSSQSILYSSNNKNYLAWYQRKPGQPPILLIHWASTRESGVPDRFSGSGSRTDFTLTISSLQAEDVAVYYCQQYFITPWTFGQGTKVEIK
0.081

Give ELISA reading for 24B3 (antibody, V domains shown, Fully human monoclonal antibody from a XenoMouse hybridoma (IgG2 or IgG4 strain), purified) VH: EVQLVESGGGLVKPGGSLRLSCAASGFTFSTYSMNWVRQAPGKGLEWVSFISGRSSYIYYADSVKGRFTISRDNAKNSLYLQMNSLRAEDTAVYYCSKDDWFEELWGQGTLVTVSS VL: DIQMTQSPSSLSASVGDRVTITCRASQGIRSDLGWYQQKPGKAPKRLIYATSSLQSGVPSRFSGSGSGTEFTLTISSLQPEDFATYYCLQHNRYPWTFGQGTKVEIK
0.09

Give ELISA reading for 29H3 (antibody, V domains shown, Fully human monoclonal antibody from a XenoMouse hybridoma (IgG2 or IgG4 strain), purified) VH: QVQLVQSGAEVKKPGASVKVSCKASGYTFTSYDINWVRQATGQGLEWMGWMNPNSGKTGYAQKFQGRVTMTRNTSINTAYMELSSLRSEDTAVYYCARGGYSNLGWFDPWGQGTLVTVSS VL: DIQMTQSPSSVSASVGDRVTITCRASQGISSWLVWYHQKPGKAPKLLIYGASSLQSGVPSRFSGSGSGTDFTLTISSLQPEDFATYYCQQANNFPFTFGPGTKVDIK
0.099

Give ELISA reading for 31E11 (antibody, V domains shown, Fully human monoclonal antibody from a XenoMouse hybridoma (IgG2 or IgG4 strain), purified) VH: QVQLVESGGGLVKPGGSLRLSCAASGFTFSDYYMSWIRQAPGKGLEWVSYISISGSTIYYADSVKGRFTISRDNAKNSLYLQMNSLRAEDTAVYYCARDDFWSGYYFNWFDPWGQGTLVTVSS VL: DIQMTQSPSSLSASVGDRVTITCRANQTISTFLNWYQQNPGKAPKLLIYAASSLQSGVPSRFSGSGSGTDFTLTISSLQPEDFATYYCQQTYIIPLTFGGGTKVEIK
0.08

Give ELISA reading for 33B1 (antibody, V domains shown, Fully human monoclonal antibody from a XenoMouse hybridoma (IgG2 or IgG4 strain), purified) VH: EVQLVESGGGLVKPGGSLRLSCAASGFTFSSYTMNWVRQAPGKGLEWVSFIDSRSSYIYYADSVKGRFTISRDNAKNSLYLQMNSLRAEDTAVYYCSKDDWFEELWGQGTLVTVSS VL: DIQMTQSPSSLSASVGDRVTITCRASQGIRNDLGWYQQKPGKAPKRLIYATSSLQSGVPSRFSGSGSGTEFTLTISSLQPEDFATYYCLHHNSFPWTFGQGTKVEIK
0.072
